Consider compounds characterized by their IC50 with PI3Kβ (Homo sapiens (Human), UniProt P42338).
Sequence (P42338 whole entry, species assumed): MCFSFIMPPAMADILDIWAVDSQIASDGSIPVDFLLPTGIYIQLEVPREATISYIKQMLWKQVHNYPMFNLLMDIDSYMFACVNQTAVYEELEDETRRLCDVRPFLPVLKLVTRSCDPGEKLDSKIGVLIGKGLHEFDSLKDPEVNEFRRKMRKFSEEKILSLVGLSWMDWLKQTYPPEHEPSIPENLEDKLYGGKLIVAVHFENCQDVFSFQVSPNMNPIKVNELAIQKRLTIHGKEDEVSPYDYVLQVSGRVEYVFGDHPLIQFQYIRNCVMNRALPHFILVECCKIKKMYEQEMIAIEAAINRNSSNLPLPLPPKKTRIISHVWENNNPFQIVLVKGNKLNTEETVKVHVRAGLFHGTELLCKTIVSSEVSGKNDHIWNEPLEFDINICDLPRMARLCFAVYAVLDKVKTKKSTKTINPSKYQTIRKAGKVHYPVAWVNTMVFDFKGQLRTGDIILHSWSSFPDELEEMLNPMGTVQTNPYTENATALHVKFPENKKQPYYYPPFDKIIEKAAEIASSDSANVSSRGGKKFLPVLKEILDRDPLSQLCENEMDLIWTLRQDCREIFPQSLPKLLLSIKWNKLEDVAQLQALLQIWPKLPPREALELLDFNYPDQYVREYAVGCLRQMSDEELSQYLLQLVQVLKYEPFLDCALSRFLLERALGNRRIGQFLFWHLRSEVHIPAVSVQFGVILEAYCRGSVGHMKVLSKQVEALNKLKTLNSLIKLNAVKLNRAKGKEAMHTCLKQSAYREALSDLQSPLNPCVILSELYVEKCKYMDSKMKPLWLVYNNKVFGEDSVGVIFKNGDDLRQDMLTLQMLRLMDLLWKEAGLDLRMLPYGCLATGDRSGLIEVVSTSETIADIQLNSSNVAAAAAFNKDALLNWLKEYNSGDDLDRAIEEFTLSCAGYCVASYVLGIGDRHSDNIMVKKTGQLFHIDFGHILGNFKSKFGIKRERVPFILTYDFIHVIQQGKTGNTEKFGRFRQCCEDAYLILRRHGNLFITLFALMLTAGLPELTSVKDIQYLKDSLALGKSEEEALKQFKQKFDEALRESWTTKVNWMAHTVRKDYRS
Sequence (P27986 whole entry partner, species assumed): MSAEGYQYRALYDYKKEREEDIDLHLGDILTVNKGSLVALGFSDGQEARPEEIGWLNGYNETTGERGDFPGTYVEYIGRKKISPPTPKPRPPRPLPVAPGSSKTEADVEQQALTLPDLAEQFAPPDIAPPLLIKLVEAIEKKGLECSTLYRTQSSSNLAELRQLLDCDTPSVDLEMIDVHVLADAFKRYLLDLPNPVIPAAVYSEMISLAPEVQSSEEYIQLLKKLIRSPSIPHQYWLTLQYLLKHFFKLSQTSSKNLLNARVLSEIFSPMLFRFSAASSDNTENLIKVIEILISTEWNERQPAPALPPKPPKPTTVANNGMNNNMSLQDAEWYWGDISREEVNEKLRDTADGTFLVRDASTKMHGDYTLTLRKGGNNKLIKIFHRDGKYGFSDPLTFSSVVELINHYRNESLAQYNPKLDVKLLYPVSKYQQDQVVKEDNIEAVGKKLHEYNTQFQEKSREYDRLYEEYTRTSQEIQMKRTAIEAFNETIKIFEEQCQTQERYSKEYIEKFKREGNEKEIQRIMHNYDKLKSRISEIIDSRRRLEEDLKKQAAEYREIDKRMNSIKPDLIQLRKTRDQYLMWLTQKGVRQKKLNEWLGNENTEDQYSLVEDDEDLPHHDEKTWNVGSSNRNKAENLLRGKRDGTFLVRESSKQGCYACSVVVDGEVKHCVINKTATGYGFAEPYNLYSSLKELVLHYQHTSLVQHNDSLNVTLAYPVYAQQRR

Consider the following illustrative entries.
Cc1nn(C)cc1-c1cc(N2CCOCC2)c2nc(C(=O)N3CCC(N4CCOCC4)CC3)[nH]c2n1
9.91 µM
Cn1cc(-c2cc(N3CCOCC3)c3nc(C(=O)N4CCC5(CC4)COC5)[nH]c3n2)cn1
> 10 µM
Cc1nn(C)cc1-c1nc2c(nc(C(=O)N3CCC(N4CCOCC4)CC3)n2C)c(N2CCOCC2)c1F
> 10 µM

Considering `Cn1cc(-c2nc(N3CCOCC3)c3nc(C(=O)N4CCC(C(C)(C)O)CC4)[nH]c3n2)cn1` , its IC50 with PI3Kβ (Homo sapiens (Human), UniProt P42338) was recorded as > 10 µM

IC50 value, target or system PI3Kβ (Homo sapiens (Human), UniProt P42338), for `Cn1cc(-c2nc(N3CCOCC3)c3nc(C(=O)NCCCN4CCOCC4)n(C)c3n2)cn1` : > 10 µM

IC50 for PI3Kβ (Homo sapiens (Human), UniProt P42338) with input `O=C(c1nc2c(N3CCOCC3)nc(-c3c[nH]nc3C(F)(F)F)nc2[nH]1)N1CCC(N2CCOCC2)CC1` equals > 10 µM

Reported PI3Kβ (Homo sapiens (Human), UniProt P42338) IC50 for item `Cc1nn(C)cc1-c1nc(N2CCOCC2)c2nc(C(=O)N3CCN(C(C)(C)C(N)=O)CC3)[nH]c2n1` was > 1 µM

Observed IC50 on PI3Kβ (Homo sapiens (Human), UniProt P42338), entry `Cn1cc(-c2nc(N3CCOCC3)c3nc(C(=O)N4CCC(N5CCOCC5)CC4)[nH]c3n2)cn1` , equals > 10 µM

Given the compound `Cn1cc(-c2nc3[nH]c(C(=O)N4CCC5(CC4)COC5)nc3c(N3CCOCC3)c2F)cn1` and test system PI3Kβ (Homo sapiens (Human), UniProt P42338), the measured IC50 is > 10 µM

Considering `Cc1nn(C)cc1-c1nc(N2CCOCC2)c2nc(C(=O)N3CCC(N4CCOCC4)CC3)[nH]c2n1` , its IC50 with PI3Kβ (Homo sapiens (Human), UniProt P42338) was recorded as > 10 µM

IC50 of `Cc1nn(C)cc1-c1nc2[nH]c(C(=O)N3CCC(C(N)=O)CC3)nc2c(N2CCOCC2)c1F` , assay on PI3Kβ (Homo sapiens (Human), UniProt P42338), is > 10 µM
